# Tested on: UO-31
# assay: NCI tumour cell line growth inhibition, 48 h
Active and inactive are the calls of the source. Cut-off read from the data, not from the text of the source: active = GI50 up to about 1.1 µM and inactive = higher.
Write down the outcome that applies. Available outcomes: active, inactive

INSERT INTO measurements (molecule, assigned_category) VALUES
  ('CC(C)C1C(=O)N(c2c(F)c(F)c(F)c(F)c2F)C(=S)N1CC[S+]([O-])c1ccccc1 (configuration not stated)', 'inactive'),
  ('C[C@@H]1OC(=O)C[C@H]2CC(=O)N(CCC3CN(C(=O)OCc4ccccc4)c4ccccc43)C[C@@H]21 (some centres not stated)', 'inactive'),
  ('Cc1ccc(S(=O)(=O)Oc2cc(-c3ccccc3)nc3ccccc23)cc1', 'inactive'),
  ('COc1ccc(-c2cc(-c3cc(Cl)cc(Br)c3O)nc(O)n2)cc1', 'inactive'),
  ('NS(=O)(=O)c1nnc(NS(=O)(=O)c2cccc3cccnc23)s1', 'inactive');

Next item in the queue.
Which result was noted for this molecule in the test: COC(=O)c1c2c(cc3c1CC1(C3)Cc3cc4c(c(C(=O)OC)c3C1)CCC4)CCC2 inactive

Origin of values: ChEMBL document CHEMBL1201862
